target: S. aureus RNase P (RnpA+rnpB) (Staphylococcus aureus)
method description: RNase P activity assay (precursor tRNA processing)
Assay type: biochemical
test context: ptRNATyr processing, gel densitometry; read-out: RNase P IC50
Experimental: The RNase P inhibitors described herein were tested for activity toward RNase P. S. aureus RNase P activity assays were performed in low salt buffer (50 mM Tris-HCl pH 8.0, 5 mM MgCl2) or in high salt buffer (50 mM Tris-HCl pH 8.0, 100 mM MgCl2, 800 mM NH4Cl). […] The percent RNase P activity was then calculated using the following calculation: (test compound tRNATyr signal/positive control tRNATyr signal)*100.
pIC50: −log10 of the molar value.
test readout: pIC50

smiles_string=CC(C)c1ccc(OCC(=O)NNC(=S)NC(=O)c2ccccn2)cc1 value_reported=6.00

1. CC(C)c1ccc(OCC(=O)NNC(=S)NC(=O)/C=C/c2cc3ccccc3o2)cc1
2. Cc1ccc(OCC(=O)NNC(=S)NC(=O)COc2ccccc2)cc1
Qu. Task for the reader: decide whether 1 or 2 has the larger pIC50. Label of pick, please.
Ans. 1
(1: 4.59, 2: 3.81)
